# experimental-system: AP-2 complex subunit beta (Homo sapiens) (UniProt P63010)
# Sequence (P63010 whole entry, looked up, one chain of several): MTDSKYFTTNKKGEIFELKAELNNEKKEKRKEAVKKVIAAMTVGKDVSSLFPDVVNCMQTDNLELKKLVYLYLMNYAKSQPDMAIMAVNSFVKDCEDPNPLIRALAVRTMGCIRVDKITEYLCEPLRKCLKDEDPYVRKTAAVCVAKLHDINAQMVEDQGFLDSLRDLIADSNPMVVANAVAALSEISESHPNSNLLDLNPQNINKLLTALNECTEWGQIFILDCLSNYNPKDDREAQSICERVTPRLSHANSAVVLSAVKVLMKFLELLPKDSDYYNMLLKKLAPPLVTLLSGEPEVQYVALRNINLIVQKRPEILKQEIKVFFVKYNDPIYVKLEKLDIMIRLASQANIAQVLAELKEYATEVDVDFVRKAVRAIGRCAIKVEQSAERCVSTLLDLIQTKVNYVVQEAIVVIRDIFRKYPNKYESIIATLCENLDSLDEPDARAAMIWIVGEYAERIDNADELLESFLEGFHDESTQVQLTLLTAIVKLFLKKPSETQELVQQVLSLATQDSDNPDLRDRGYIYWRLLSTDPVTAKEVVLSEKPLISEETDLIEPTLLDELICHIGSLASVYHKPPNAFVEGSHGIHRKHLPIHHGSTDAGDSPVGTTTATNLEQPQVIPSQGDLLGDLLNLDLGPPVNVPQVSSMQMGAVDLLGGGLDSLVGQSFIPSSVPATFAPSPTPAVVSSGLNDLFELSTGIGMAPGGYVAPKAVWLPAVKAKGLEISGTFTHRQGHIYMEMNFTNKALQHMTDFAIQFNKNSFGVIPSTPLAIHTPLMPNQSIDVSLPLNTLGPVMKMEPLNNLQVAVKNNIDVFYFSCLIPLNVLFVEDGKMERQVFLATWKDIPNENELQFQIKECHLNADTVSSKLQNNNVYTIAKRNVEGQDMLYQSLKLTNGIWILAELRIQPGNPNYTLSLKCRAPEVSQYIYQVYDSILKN
# experiment-notes: beta-arrestin/AP2 interaction blockers – biochemical, validation set, GST-AP2 beads, flow cytometry, pilot screen (AID 504541);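 also: AP2 carries R879A mutation and is captured from E. coli lysate; bead-bound FITC arrestin peptide fluorescence measuring arrestin peptide binding to AP2; 0% = DMSO wells and 100% = excess unlabeled arrestin peptide control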
# test-conditions: FITC arrestin peptide, at 10 µM, AP2 beta2 appendage fragment, R879A mutant
The source made the active and inactive calls.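 The calls were made as follows: active = inhibition above 54%, about 3 SD of non-fluorescent compounds; inactive = the rest.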 Peptide text beside a SMILES is read from it.
Select the matching outcome among t for active, f for inactive

Recorded results for 5 compounds are shown here.
[Q] In this assay, the call recorded for COc1ccc(C(=O)Oc2ccc3c(C)cc(=O)oc3c2C(C)=O)cc1 was what?
[A] f

[Q] In this assay, the call recorded for CN(C)C(=O)CCCCCCCCC(=O)N(C)C was what?
[A] f

[Q] In this assay, the call recorded for CC(=O)NC(CC(C)C)C(=O)NC(Cc1ccccc1)C(N)=O (stereo not drawn) (Ac-Leu-Phe-NH2; configuration not given here) was what?
[A] f

[Q] In this assay, the call recorded for CCN1C(=O)C(CC(=O)Nc2ccc(OC)cc2)N(CCc2ccc(F)cc2)C1=S (configuration not stated) was what?
[A] f

[Q] In this assay, the call recorded for O=C1CCCC(=O)C1=Cc1c[nH]c2ccccc12 was what?
[A] f

***
[Q] In this assay, the call recorded for OCCN(Cc1nc(-c2ccc3c(c2)OCO3)no1)Cc1cccs1 was what?
[A] f

[Q] In this assay, the call recorded for NS(=O)(=O)c1cc2c(cc1Cl)NCNS2(=O)=O was what?
[A] f

[Q] In this assay, the call recorded for Cc1c2c(nc3c(C)cccc13)OC(C)C2 (configuration not stated) was what?
[A] f

[Q] In this assay, the call recorded for CC(C)(Oc1ccc(CCNC(=O)c2ccc(Cl)cc2)cc1)C(=O)O was what?
[A] f

* * *

# experiment-notes: TOR pathway LAP4-GFP level changes – S. cerevisiae, multiplex flow cytometry, primary screen (AID 1873)
# test-conditions: S. cerevisiae LAP4-GFP expression, 3 h, at 10 µM
Records with an inconclusive call do not appear. Active and inactive are the calls of the source.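 The calls were made as follows: active = GFP signal, as percent of the solvent control, above the screen mean plus 3 SD, about 149; inconclusive = no reading because the compound's own fluorescence upset strain identification; inactive = the rest.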
Select the matching outcome among true (1) = active, false (0) = inactive

Recorded results for 8 compounds are shown here.
[Q] In this assay, the call recorded for CC(C)=CCC/C(C)=C/CC/C(C)=C/CC/C(C)=C/CC1=C(C)C(=O)c2ccccc2C1=O was what?
[A] false (0)

[Q] In this assay, the call recorded for COc1ccc2cc(C(=O)OC(C)C)sc(=O)c2c1OC was what?
[A] false (0)

[Q] In this assay, the call recorded for NC[C@H]1O[C@H](O[C@H]2[C@H](O)[C@@H](O[C@H]3O[C@H](CO)[C@@H](O)[C@H](N)[C@H]3O)[C@H](N)C[C@@H]2N)[C@H](N)C[C@@H]1O was what?
[A] false (0)

[Q] In this assay, the call recorded for CC(C)CC(=O)Nc1ccc2oc(-c3ccncc3)nc2c1 was what?
[A] false (0)

[Q] In this assay, the call recorded for COc1ccc(CCn2c(C)nc3c(c(=O)c4ccccc4n3C)c2=O)cc1 was what?
[A] false (0)

[Q] In this assay, the call recorded for NCCCC(N)(C(=O)O)C(F)F (centres undefined) was what?
[A] false (0)

[Q] In this assay, the call recorded for COc1ccc(-c2nnc(-c3cc4c(ccc5ccccc54)oc3=O)o2)cc1 was what?
[A] false (0)

[Q] In this assay, the call recorded for Clc1cc(-c2ccc(/C=N/n3cnnc3)o2)ccc1Br was what?
[A] false (0)

***
[Q] In this assay, the call recorded for CC[C@H](C)C(=O)O[C@H]1C[C@@H](C)C=C2C=C[C@H](C)[C@H](CC[C@@H]3C[C@@H](O)CC(=O)O3)[C@H]21 was what?
[A] false (0)

[Q] In this assay, the call recorded for CC(=O)c1cc2c(cc1NC(=O)c1ccco1)OCCO2 was what?
[A] false (0)

* * *

Measured percent response of DMSO control values are reported for all entries that follow.
# experiment-notes: TOR pathway RTG branch CIT2 reporter changes – S. cerevisiae, GFP fusion, multiplex flow cytometry, primary screen (AID 1870);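 also: barcoded CIT2-GFP strain pooled with four other GFP strains with rapamycin as positive control; median GFP fluorescence per well over plate mean of DMSO wells so 100% = DMSO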
# test-conditions: S. cerevisiae CIT2-GFP expression, 3 h, at 10 µM, stronger effect = higher value
Active and inactive are the calls of the source.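 Rule for the calls: active = percent response above a set limit, the screen-wide mean plus 3 SD (cut at about 130% in these data); inactive = the rest.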

Study these solved cases before continuing.
[Q] For the compound COc1ccc2[nH]c3c(c2c1)CCNC3C1CC=C(C)CC1 (centres undefined) , what percent response of DMSO control is on record?
[A] 104% (inactive)

[Q] For the compound C[C@]12CCC3C(CC=C4C[C@@H](O)CC[C@@]43C)C1CCC2[C@]1(C)CCC(=O)O1 (some centres undefined) , what percent response of DMSO control is on record?
[A] 109% (inactive)

[Q] For the compound COC(=O)c1ccccc1NC(=O)NCc1ccccc1 , what percent response of DMSO control is on record?
[A] 104% (inactive)

[Q] For the compound COCCn1c(SCCOc2ccccc2)nc2ccccc2c1=O , what percent response of DMSO control is on record?
[A] 103% (inactive)

[Q] For the compound Cc1ccc(/C=N/Nc2nc(C(C)(C)C)cs2)o1 , what percent response of DMSO control is on record?
[A] 95.8% (inactive)

[Q] For the compound CCc1cc(=O)oc2cc3occ(-c4ccc(OC)c(F)c4)c3cc12 , what percent response of DMSO control is on record?
[A] 111% (inactive)

[Q] For the compound COc1ccc(C(=O)CCN2CCc3cc(OC)c(OC)cc3C2)cc1 , what percent response of DMSO control is on record?
[A] 107% (inactive)

[Q] For the compound Cc1cccc(-c2ncc(CN3CCN(CC(C)C)C(CCO)C3)cn2)c1 (centres undefined) , what percent response of DMSO control is on record?
[A] 108% (inactive)

[Q] For the compound COc1ccc2oc(C)c(C(N)=O)c2c1 , what percent response of DMSO control is on record?
[A] 91% (inactive)

[Q] For the compound C=CC1=C(C(=O)O)N2C(=O)C(NC(=O)Cc3ccccc3)C2SC1 (centres undefined) , what percent response of DMSO control is on record?
[A] 105% (inactive)

***
[Q] For the compound N#C/C(C(N)=O)=c1/ccc2c(c1)N1C3=C(CCCC3)CC3CCCCC31N=2 (centres undefined) , what percent response of DMSO control is on record?
[A] 94.5% (inactive)

[Q] For the compound C/C=C/c1ccc(OCCCCN2CC(C)CC(C)C2)c(OC)c1 (centres undefined) , what percent response of DMSO control is on record?
[A] 106% (inactive)

[Q] For the compound OCC1CCN(Cc2cn(Cc3ccccc3)nc2-c2cc3ccccc3o2)CC1 , what percent response of DMSO control is on record?
[A] 97.8% (inactive)

* * *

# experiment-notes: TOR pathway CIT2 reporter hit retest – S. cerevisiae, GFP fusion, cherry picks, mother/daughter gates, confirmation (AID 2274)
# test-conditions: S. cerevisiae CIT2-GFP strain, flow cytometry, 3 h; measured here: daughter cell gate; at 10 µM; stronger effect = higher value
endpoint: GFP response, % of DMSO (%)
// return numeric value only (unit: %, not printed)

[Q] For the compound N#C/C(C(N)=O)=c1/ccc2c(c1)N1C3=C(CCCC3)CC3CCCCC31N=2 (stereo not given) , what GFP response, % of DMSO is on record?
[A] 85.2

* * *

# experimental-system: Beta-2 adrenergic receptor (Homo sapiens) (UniProt P07550)
# Sequence (P07550 whole entry, looked up): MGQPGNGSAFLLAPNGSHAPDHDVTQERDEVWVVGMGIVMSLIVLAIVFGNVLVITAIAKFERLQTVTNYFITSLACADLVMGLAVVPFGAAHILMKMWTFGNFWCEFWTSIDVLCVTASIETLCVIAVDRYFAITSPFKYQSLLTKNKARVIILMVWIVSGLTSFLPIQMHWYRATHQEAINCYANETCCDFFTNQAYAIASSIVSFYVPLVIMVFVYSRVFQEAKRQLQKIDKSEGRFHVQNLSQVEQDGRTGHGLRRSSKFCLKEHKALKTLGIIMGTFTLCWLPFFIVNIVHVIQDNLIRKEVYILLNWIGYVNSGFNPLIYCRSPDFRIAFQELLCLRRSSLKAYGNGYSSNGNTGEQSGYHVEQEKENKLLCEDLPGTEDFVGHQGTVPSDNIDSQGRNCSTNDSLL
# experiment-notes: agonist-induced loss of surface beta2AR – cell-based, FAP fluorogen, flow cytometry, validation set, pilot screen (AID 504459);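 also: agonist-driven loss of surface beta2AR via internalization measured by FAP dye flow cytometry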
# test-conditions: Am2.2-beta2AR cells, at 10 µM, stronger effect = higher value
Activity calls are given as the source filed them.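 The calls were made as follows: active = percent response above 42, roughly 3 SD of non-fluorescent test compounds; inactive = the rest.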
endpoint: response

[Q] For the molecule CN=C(NC#N)NCCSCc1nc[nH]c1C , what response is on record?
[A] 3.13% (inactive)

[Q] For the molecule COc1cc(CC(=O)NCCc2ccc(S(N)(=O)=O)cc2)cc(OC)c1OC , what response is on record?
[A] -8.65% (inactive)

[Q] For the molecule COc1ccc(C=O)c(OC)c1 , what response is on record?
[A] -22.1% (inactive)

[Q] For the molecule COc1cc(NS(=O)(=O)c2ccc(N)cc2)nc(OC)n1 , what response is on record?
[A] 1.82% (inactive)

[Q] For the molecule COc1cc(CNCCc2ccccc2F)ccc1OCC(=O)N1CCCCC1 , what response is on record?
[A] -8.73% (inactive)

[Q] For the molecule COC(=O)c1ccccc1NC(=O)NCc1ccccc1 , what response is on record?
[A] -13.3% (inactive)

[Q] For the molecule Cc1nc(C2CC(=O)OC23CCCCC3)cs1 (stereo not given) , what response is on record?
[A] -0.69% (inactive)

[Q] For the molecule COc1ccccc1C(CCN(Cc1ccccc1)C(C)=O)c1ccco1 (stereo not given) , what response is on record?
[A] -11.5% (inactive)

[Q] For the molecule COc1ccc(C(=O)Nc2cccc3cccnc23)cc1OC , what response is on record?
[A] 10.2% (inactive)

[Q] For the molecule COc1cc(C2Nc3ccccc3C(=O)N2c2ccccc2)ccc1O (stereo not given) , what response is on record?
[A] -10.2% (inactive)

***
[Q] For the molecule O=C(NCCc1ccccc1)C1CCN(C2CCN(Cc3ccco3)CC2)CC1 , what response is on record?
[A] -41.8% (inactive)

[Q] For the molecule CCCCCCCCNC(C)C(O)c1ccc(SC(C)C)cc1 (stereo not given) , what response is on record?
[A] 10.9% (inactive)

[Q] For the molecule COc1cc(C(=O)Nc2cccc(-c3nnc(-c4ccco4)o3)c2)ccc1OC(C)=O , what response is on record?
[A] 3.82% (inactive)

[Q] For the molecule CCc1nc(N)nc(N)c1-c1ccc(Cl)cc1 , what response is on record?
[A] -2.3% (inactive)

[Q] For the molecule CC(C)(C)C(=O)NC(=S)NNC(=O)c1ccncc1 , what response is on record?
[A] -25% (inactive)

[Q] For the molecule CC(=O)C1=C(O)C(=O)N(Cc2cccnc2)C1c1ccc(C(C)C)cc1 (stereo not given) , what response is on record?
[A] -27.3% (inactive)

[Q] For the molecule Cc1ccc(CN2CCN(Cc3cn[nH]c3C3CCCCC3)CC2CCO)cc1 (stereo not given) , what response is on record?
[A] -22.7% (inactive)

[Q] For the molecule CN(C)C(=O)CCCCCCCCC(=O)N(C)C , what response is on record?
[A] 3.92% (inactive)

[Q] For the molecule COc1ccc(S(N)(=O)=O)cc1C(N)=O , what response is on record?
[A] 1.47% (inactive)

[Q] For the molecule Clc1ccc2c(c1)[C@H]1OCC[C@H]1[C@@H](c1ccco1)N2 , what response is on record?
[A] 3.26% (inactive)

[Q] For the molecule Cc1ccc2c(c1)c(C)cc(=O)n2CCC(=O)O , what response is on record?
[A] 4.73% (inactive)

[Q] For the molecule CC(C)Oc1ccc(C2CC(=O)N(c3ccc(C(=O)O)cc3)C2=O)cc1 (stereo not given) , what response is on record?
[A] -19.8% (inactive)
